Give bioavailability for every item shown.
assay protocol: Oral bioavailability in Wistar Hannover rat at 10 mg/kg administered as ASD form in 2% Tween 80 (v/v) in 0.5% (w/v) methyl cellulose in water formulation by LC-MS/MS analysis
Assay type: ADME, organism-based
run conditions: in vivo
One number for each entry, in %.

• COC(=O)N[C@H](C(=O)N1C[C@H](C(F)(F)F)C[C@H]1C(=O)N[C@H](C#N)C[C@@H]1CCCNC1=O)C(C)C = 8.1

Moving on to another compound below.
What does the record list as bioavailability for CC(C)(C)[C@H](NC(=O)C(F)(F)F)C(=O)N1C[C@H](OC(F)F)C[C@H]1C(=O)N[C@H](C#N)C[C@@H]1CCNC1=O ?
4.2

* * *

assay protocol: AUC (0 to 24 hrs) in Wistar Hannover rat at 10 mg/kg, po administered as crystalline MTBE in 10% (v/v) ethanol/10% (v/v) capmul MCM/35% (v/v) PEG400/45% (v/v) Tween 80 formulation by LC-MS/MS analysis
Type: ADME, organism-based
run conditions: in vivo
measured metric: AUC(0-t) (ng·h/mL)
Numbers only, in ng·h/mL.

What does the record list as AUC(0-t) for CC(C)(C)[C@H](NC(=O)C(F)(F)F)C(=O)N1C[C@H]2[C@@H]([C@H]1C(=O)N[C@H](C#N)C[C@@H]1CCNC1=O)C2(C)C ?
3190

* * *

Give bioavailability for every item shown.
assay protocol: Oral bioavailability in Wistar Hannover rat at 10 mg/kg by LC-MS/MS analysis
Assay type: ADME, organism-based
run conditions: in vivo
Give bare numbers, in %.

Please report bioavailability for every entry that follows.
1. COC(=O)N[C@H](C(=O)N1C[C@H](C(F)(F)F)C[C@H]1C(=O)N[C@H](C#N)C[C@@H]1CCCNC1=O)C(C)C
2. COC(=O)N[C@H](C(=O)N1C[C@H](OC(F)(F)F)C[C@H]1C(=O)N[C@H](C#N)C[C@@H]1CCNC1=O)C(C)(C)C

7.7
8.6

// provenance: ChEMBL document CHEMBL5576048
